# Tested on: PDE-1
# Construct: gene phosphodiesterase I; substrate bis(p-nitrophenyl) phosphate type, pH 8.8 and Mg acetate fit the usual snake venom phosphodiesterase I, not the docking model human PDE1B (5W6E)
# MEASUREMENT DESCRIPTION: bis(p-nitrophenyl) substrate hydrolysis, […] nm
# Assay type: biochemical
# EXPERIMENTAL CONDITIONS: 0.33 mM bis(p-nitrophenyl) substrate, Mg acetate, Tris-HCl pH 8.8, 37 °C
REPORTED METRIC: IC50 (µM)

# SMI, TESTED ON, RESULT VALUE
measured = [
    ("CC1(C)C=Cc2c(cc3oc(-c4ccc(O)cc4)cc(=O)c3c2O)O1", "PDE-1", 209),
]

###

The reader will find reported pIC50 values listed item by item below.
# TESTED ON: mushroom tyrosine [tyrosinase]
# Construct: docking model 1WX2 is another species (Streptomyces)
# MEASUREMENT DESCRIPTION: L-DOPA oxidation, absorbance […] nm
# EXPERIMENTAL CONDITIONS: L-DOPA (printed L-DOP) substrate, phosphate buffer, 37 °C
pIC50: −log10 of the molar value.

# SMI, pIC50
records = [
    ("CC1(C)C=Cc2c(cc3oc(-c4ccc(O)cc4)cc(=O)c3c2O)O1", 4.39),
    ("O=c1cc(CO)occ1O", 4.36),
]

###

# Test system: PDE-1
# Construct: gene phosphodiesterase I; substrate bis(p-nitrophenyl) phosphate type, pH 8.8 and Mg acetate fit the usual snake venom phosphodiesterase I, not the docking model human PDE1B (5W6E)
# MEASUREMENT DESCRIPTION: bis(p-nitrophenyl) substrate hydrolysis, […] nm
# Format: biochemical
# EXPERIMENTAL CONDITIONS: 0.33 mM bis(p-nitrophenyl) substrate, Mg acetate, Tris-HCl pH 8.8, 37 °C; chelator used as standard
REPORTED METRIC: IC50 (µM)

# COMPOUND, RESULT VALUE
data = [
    ("O=C(O)CN(CCN(CC(=O)O)CC(=O)O)CC(=O)O [EDTA]", 264),
]
